These data points were gathered from ChEMBL document CHEMBL4364254.

molecular target: Glucocorticoid receptor (Homo sapiens); assay: Displacement of [3H]dexamethasone from recombinant human GR after 360 mins by scintillation counting analysis
Sequence (P04150 whole entry): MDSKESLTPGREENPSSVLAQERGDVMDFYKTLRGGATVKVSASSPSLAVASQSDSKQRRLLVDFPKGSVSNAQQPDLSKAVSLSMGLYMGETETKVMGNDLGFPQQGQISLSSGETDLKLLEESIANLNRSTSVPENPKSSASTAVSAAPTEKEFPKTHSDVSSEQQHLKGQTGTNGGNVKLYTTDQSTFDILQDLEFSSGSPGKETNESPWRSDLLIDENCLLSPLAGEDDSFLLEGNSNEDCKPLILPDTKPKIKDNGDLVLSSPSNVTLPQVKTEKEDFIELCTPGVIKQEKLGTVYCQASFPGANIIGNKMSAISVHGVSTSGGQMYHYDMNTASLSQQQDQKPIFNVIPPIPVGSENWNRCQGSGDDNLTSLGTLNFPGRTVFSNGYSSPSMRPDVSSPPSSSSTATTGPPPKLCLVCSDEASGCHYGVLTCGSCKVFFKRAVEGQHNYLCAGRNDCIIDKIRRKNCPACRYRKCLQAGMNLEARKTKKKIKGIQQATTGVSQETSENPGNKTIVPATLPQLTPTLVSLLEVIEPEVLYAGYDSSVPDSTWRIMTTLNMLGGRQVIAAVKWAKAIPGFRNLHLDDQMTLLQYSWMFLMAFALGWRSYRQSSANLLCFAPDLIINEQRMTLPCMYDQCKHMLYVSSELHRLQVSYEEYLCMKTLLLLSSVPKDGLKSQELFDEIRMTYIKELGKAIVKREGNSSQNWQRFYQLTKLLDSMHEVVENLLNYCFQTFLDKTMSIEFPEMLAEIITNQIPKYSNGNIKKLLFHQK
PROPERTY_NAME: EC50

Query string: Provide one value: measured EC50 of O=C(Nc1ccc(OC(F)F)nc1)NC1CCN(c2ncnc3c2nc(-c2ccccc2Cl)n3-c2ccc(Cl)cc2)CC1
Result string: > 10 µM

----------
target: Histamine H1 receptor (Homo sapiens, UniProt P35367); test: Displacement of [3H]pyrilamine from recombinant human H1 receptor after 60 mins by scintillation counting analysis
Sequence (P35367 whole entry): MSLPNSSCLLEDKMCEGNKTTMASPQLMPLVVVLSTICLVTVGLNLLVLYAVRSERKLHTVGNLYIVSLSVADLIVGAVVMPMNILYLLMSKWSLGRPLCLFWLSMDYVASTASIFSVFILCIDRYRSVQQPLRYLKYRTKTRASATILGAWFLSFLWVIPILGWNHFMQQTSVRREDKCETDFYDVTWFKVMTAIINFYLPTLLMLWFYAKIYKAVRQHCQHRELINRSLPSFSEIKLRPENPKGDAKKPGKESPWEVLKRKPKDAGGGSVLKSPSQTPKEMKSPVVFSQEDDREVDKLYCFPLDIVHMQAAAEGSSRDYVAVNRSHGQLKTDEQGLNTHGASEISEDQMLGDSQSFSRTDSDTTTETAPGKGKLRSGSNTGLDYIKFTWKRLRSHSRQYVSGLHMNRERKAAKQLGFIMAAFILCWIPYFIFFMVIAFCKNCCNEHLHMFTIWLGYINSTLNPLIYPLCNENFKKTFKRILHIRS
pIC50: −log10 of the molar value.
PROPERTY_NAME: pIC50

Query string: Provide one value: measured pIC50 of O=C(Nc1ccc(OC(F)F)nc1)NC1CCN(c2ncnc3c2nc(-c2ccccc2Cl)n3-c2ccc(Cl)cc2)CC1
Result string: < 5.00

----------
target: Sodium-dependent noradrenaline transporter (Homo sapiens, UniProt P23975); test: Displacement of [3H]nisoxetine from recombinant human norepinephrine transporter after 120 mins by scintillation counting analysis
Sequence (P23975 whole entry): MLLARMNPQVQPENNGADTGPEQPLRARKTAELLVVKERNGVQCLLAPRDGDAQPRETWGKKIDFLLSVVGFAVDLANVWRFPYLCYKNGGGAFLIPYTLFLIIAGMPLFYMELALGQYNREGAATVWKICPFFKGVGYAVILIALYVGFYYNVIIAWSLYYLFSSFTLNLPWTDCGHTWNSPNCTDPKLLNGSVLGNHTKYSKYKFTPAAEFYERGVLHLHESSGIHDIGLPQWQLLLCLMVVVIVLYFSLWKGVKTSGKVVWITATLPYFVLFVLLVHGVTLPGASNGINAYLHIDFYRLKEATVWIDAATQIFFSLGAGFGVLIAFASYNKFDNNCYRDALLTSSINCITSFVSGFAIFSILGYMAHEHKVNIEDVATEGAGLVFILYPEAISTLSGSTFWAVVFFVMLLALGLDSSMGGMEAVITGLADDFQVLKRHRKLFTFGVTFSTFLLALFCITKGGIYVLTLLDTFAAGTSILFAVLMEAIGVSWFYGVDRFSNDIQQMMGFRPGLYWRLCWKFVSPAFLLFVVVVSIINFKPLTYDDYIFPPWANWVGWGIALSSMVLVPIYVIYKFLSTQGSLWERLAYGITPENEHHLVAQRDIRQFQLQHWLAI
PROPERTY_NAME: IC50

Query string: Provide one value: measured IC50 of O=C(Nc1ccc(OC(F)F)nc1)NC1CCN(c2ncnc3c2nc(-c2ccccc2Cl)n3-c2ccc(Cl)cc2)CC1
Result string: > 10 µM

----------
molecular target: Neuronal acetylcholine receptor; alpha4/beta2 (Homo sapiens, UniProt P17787+P43681); experiment: Displacement of [3H]cytisine from recombinant human alpha4beta2 nAChR after 120 mins by scintillation counting analysis; type: protein-complex assay
Sequence (P17787 whole entry): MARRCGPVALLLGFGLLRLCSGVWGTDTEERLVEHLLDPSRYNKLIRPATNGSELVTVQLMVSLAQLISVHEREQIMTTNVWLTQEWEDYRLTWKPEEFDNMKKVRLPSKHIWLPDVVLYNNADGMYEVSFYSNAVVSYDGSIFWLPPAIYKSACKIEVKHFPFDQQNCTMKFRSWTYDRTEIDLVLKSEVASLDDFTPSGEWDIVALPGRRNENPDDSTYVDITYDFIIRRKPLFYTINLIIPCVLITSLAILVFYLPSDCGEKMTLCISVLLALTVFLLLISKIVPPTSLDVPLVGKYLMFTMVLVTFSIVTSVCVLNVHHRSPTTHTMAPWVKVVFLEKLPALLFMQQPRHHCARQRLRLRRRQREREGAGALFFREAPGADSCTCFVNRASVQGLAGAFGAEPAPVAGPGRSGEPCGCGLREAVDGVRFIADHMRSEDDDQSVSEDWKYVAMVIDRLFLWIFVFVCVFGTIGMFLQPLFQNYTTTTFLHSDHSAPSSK
Sequence (P43681 whole entry): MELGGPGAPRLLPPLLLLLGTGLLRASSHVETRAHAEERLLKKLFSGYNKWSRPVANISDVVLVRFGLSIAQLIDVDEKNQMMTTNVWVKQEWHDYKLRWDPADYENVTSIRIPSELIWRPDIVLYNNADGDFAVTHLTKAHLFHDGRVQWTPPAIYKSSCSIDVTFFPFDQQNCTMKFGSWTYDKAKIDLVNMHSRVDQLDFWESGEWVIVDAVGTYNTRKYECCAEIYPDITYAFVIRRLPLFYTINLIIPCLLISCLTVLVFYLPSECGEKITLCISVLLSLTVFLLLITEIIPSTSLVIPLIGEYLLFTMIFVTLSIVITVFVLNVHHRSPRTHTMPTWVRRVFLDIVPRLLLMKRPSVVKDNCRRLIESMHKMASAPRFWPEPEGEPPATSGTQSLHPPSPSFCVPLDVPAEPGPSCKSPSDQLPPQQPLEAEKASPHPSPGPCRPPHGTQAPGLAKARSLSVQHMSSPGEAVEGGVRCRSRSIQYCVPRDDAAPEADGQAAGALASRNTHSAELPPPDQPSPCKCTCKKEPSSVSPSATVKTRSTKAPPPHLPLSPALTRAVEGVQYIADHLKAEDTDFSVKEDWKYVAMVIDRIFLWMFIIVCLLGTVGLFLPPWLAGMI
pIC50: −log10 of the molar value.
PROPERTY_NAME: pIC50

Query string: Provide one value: measured pIC50 of O=C(Nc1ccc(OC(F)F)nc1)NC1CCN(c2ncnc3c2nc(-c2ccccc2Cl)n3-c2ccc(Cl)cc2)CC1
Result string: < 5.00

----------
biological target: Alpha-2A adrenergic receptor (Homo sapiens, UniProt P08913); test: Displacement of [3H]RX 821002 from recombinant human alpha 2A adrenoceptor after 60 mins by scintillation counting analysis
Sequence (P08913 whole entry): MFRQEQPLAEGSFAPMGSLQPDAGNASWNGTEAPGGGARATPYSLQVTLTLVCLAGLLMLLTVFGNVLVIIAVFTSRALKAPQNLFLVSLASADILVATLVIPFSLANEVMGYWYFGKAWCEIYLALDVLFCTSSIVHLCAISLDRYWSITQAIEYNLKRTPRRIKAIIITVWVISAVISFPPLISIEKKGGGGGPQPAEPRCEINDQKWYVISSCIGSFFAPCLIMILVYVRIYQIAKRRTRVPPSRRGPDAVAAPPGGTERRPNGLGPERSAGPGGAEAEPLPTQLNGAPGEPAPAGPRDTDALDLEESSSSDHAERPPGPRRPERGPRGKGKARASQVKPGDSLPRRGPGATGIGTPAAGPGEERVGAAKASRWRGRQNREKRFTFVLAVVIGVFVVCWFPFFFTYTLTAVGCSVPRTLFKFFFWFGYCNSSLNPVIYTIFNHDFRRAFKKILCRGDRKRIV
PROPERTY_NAME: EC50

Query string: Provide one value: measured EC50 of O=C(Nc1ccc(OC(F)F)nc1)NC1CCN(c2ncnc3c2nc(-c2ccccc2Cl)n3-c2ccc(Cl)cc2)CC1
Result string: > 10 µM

----------
test: Displacement of [3H]batrachotoxinin from rat brain voltage-gated sodium ion channel site 2 after 60 mins by scintillation counting analysis
pEC50: −log10 of the molar value.
PROPERTY_NAME: pEC50

Query string: Provide one value: measured pEC50 of O=C(Nc1ccc(OC(F)F)nc1)NC1CCN(c2ncnc3c2nc(-c2ccccc2Cl)n3-c2ccc(Cl)cc2)CC1
Result string: < 5.00

----------
molecular target: Adenosine receptor A2a (Homo sapiens, UniProt P29274); test: Displacement of [3H]CGS21680 from recombinant human adenosine A2A receptor after 120 mins by scintillation counting analysis
Sequence (P29274 whole entry): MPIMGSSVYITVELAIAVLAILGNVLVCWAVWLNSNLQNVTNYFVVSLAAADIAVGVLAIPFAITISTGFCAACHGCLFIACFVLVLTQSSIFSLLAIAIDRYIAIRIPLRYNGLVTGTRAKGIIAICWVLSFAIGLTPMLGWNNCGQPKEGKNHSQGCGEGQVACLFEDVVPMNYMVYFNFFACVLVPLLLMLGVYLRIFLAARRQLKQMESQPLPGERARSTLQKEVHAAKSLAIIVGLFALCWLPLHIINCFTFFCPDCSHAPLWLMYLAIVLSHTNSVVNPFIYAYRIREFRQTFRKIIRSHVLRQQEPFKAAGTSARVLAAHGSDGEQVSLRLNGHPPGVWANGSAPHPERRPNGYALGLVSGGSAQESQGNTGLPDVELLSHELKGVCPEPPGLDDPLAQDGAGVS
pIC50: −log10 of the molar value.
PROPERTY_NAME: pIC50

Query string: Provide one value: measured pIC50 of O=C(Nc1ccc(OC(F)F)nc1)NC1CCN(c2ncnc3c2nc(-c2ccccc2Cl)n3-c2ccc(Cl)cc2)CC1
Result string: < 5.00

----------
What half-life was measured for each of the following?
assay: Half life in Sprague-Dawley rat plasma at 1 mg/kg, po by LC-MS/MS analysis; type: ADME, organism-based
Numbers only, in h.

1) O=C(Nc1ccc(F)cc1F)NC1CCN(c2ncnc3c2nc(-c2ccccc2Cl)n3-c2ccc(Cl)cc2)CC1	12

Query string: Provide one value: measured half-life of O=C(Nc1ccc(OC(F)F)nc1)NC1CCN(c2ncnc3c2nc(-c2ccccc2Cl)n3-c2ccc(Cl)cc2)CC1
Result string: 9.9
